Target: UniProtKB P29274
Sequence (P29274 whole entry): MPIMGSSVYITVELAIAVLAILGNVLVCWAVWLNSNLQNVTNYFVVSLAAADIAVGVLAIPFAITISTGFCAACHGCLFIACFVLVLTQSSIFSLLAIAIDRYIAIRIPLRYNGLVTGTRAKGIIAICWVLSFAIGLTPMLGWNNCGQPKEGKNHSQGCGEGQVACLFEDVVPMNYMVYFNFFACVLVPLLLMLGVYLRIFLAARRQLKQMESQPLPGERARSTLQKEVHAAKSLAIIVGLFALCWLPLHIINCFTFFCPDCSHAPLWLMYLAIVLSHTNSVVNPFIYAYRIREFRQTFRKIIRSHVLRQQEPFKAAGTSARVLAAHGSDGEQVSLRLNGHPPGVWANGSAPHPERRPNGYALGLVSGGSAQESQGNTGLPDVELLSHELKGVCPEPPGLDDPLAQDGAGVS
measurement.kind: Ki (µM)

Worked examples, 4 molecules total:
>  <structure.notation>
C[C@@H](Oc1cccc(Cl)c1)C(=O)Nc1nnc(-c2ccccc2)[nH]1

>  <target.desc>
UniProtKB P29274

>  <Ki, µM>
1

$$$$
>  <structure.notation>
C[C@@H](Sc1ccccc1)C(=O)Nc1nnc(-c2ccccc2)[nH]1

>  <target.desc>
UniProtKB P29274

>  <Ki, µM>
2.2

$$$$
>  <structure.notation>
Cc1cc(C)cc(OCC(=O)Nc2nnc(-c3ccccc3)[nH]2)c1

>  <target.desc>
UniProtKB P29274

>  <Ki, µM>
3.2

$$$$
>  <structure.notation>
Cc1ccc(-c2nnc(NC(=O)COc3ccccc3)[nH]2)cc1

>  <target.desc>
UniProtKB P29274

>  <Ki, µM>
3.6

$$$$

1: O=C(COc1ccc2c(c1)CCC2)Nc1nc(-c2ccccc2)n[nH]1
2: Cc1cccc(C)c1OCC(=O)Nc1nc(-c2ccccc2)n[nH]1
For 1 and 2 , which recorded Ki is lower? Response format: the label of the selected entry.
2

---

Sequence of the target: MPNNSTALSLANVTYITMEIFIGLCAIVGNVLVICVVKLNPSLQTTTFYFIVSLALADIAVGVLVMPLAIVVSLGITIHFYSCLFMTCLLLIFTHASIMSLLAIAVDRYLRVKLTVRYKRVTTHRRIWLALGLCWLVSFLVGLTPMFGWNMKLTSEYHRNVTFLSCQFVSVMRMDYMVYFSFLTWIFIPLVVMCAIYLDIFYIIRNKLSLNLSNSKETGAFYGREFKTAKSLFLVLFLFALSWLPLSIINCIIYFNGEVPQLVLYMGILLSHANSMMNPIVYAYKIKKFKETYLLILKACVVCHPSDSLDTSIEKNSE
pKi: −log10 of the molar value.
measurement.kind: pKi

P: O=C(COc1ccc2c(c1)CCC2)Nc1nc(-c2ccccc2)n[nH]1
Q: Cc1cccc(C)c1OCC(=O)Nc1nc(-c2ccccc2)n[nH]1
For P and Q , which recorded pKi is lower? Response format: the label of the selected entry.
Q
(Q: 5.26, P: 5.66)

A: CC(=O)Nc1nnc(-c2ccccc2)[nH]1
B: O=C(Nc1nc(-c2ccccc2)n[nH]1)C1CCCO1 (stereo unspecified)
C: Cc1ccc(O[C@H](C)C(=O)Nc2nc(-c3ccco3)n[nH]2)cc1
// smallest pKi at index 0, largest at the end Response format: the labels, sorted as the prompt asks.
C, B, A

a: O=C(Nc1nnc(-c2ccccc2)[nH]1)c1ccc(Cl)cc1
b: Cc1ccc(-c2nnc(NC(=O)COc3ccccc3)[nH]2)cc1
c: Cc1cccc(-c2nnc(NC(=O)C(C)Oc3ccccc3)[nH]2)c1 (stereo unspecified)
Task field, ranking: reported pKi, descending order. Response format: the labels, sorted as the prompt asks.
a, b, c

---

Target chain: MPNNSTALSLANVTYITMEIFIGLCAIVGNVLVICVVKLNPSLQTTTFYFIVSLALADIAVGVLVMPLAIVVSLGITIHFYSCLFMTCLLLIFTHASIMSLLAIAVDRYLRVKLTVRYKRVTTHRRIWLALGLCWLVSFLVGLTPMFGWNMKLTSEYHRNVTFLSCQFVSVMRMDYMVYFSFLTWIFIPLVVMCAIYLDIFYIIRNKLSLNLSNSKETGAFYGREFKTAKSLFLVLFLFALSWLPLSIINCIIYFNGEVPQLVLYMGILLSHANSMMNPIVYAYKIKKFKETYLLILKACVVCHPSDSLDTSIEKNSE
Recorded Ki, one value per entry.
Return type: number; implicit unit µM.

Worked examples, 2 compounds total:
>  <structure.notation>
C[C@@H](Oc1cccc(Cl)c1)C(=O)Nc1nnc(-c2ccccc2)[nH]1

>  <Ki [µM]>
2.6

$$$$
>  <structure.notation>
CC[C@@H](Oc1ccccc1)C(=O)Nc1nc(-c2ccccc2)n[nH]1

>  <Ki [µM]>
1.9

$$$$

// switching to the query compound
Item "O=C(COc1ccccc1)Nc1nnc(-c2ccccc2)[nH]1" has what recorded Ki?
2.3
